System: IGROV
Experiment: In vitro cytotoxic activity, SRB assay
Format: cell-based, human
Conditions: 48 hours exposure
Text: Plates are washed with deionized water and dried.
measurement.name: LC50

Solved entries:
Quick one: LC50 of C/C=C1\NC(=O)[C@H](Cc2ccccc2)NC(=O)[C@@H](C(C)C)NC(=O)[C@@H]([C@@H](C)CC)NC(=O)[C@H](NC(=O)[C@H](NC(=O)[C@H](CCCN)NC(=O)[C@H]2CCCN2C(=O)[C@H](NC(=O)[C@@H](NC(=O)[C@@H](NC(=O)[C@H](NC(=O)CCCC(C)C)C(C)C)[C@@H](C)O)C(C)C)C(C)C)[C@@H](C)CC)[C@@H](C)OC(=O)[C@H](C(C)C)NC1=O [5-methylhexanoic KF, reference compound] ?
3.8 µM

// same read-out, input: C/C=C1\NC(=O)[C@H](Cc2ccccc2)NC(=O)[C@@H](C(C)C)NC(=O)[C@@H]([C@@H](C)CC)NC(=O)[C@H](NC(=O)[C@H](NC(=O)[C@H](CCCN)NC(=O)[C@H]2CCCN2C(=O)[C@H](NC(=O)[C@@H](NC(=O)[C@@H](NC(=O)[C@H](NC(=O)CC[C@@H](C)CC)C(C)C)[C@@H](C)O)C(C)C)C(C)C)[C@@H](C)CC)[C@@H](C)OC(=O)[C@H](C(C)C)NC1=O [(4S)-methylhexanoic KF]
2.62 µM

Query molecule follows.
Query (molecule): C/C=C1\NC(=O)[C@H](Cc2ccccc2)NC(=O)[C@@H](C(C)C)NC(=O)[C@@H]([C@@H](C)CC)NC(=O)[C@H](NC(=O)[C@H](NC(=O)[C@H](CCCN)NC(=O)[C@H]2CCCN2C(=O)[C@H](NC(=O)[C@@H](NC(=O)[C@@H](NC(=O)[C@H](NC(=O)CC[C@H](C)CC)C(C)C)[C@@H](C)O)C(C)C)C(C)C)[C@@H](C)CC)[C@@H](C)OC(=O)[C@H](C(C)C)NC1=O [(4R)-methylhexanoic KF] ; field requested: LC50
3.5 µM

---

Assay: In vivo MTD in athymic mice
Settings: mouse, male athymic mice, 5 daily doses, unit inferred, read-out: Male athymic mice MTD 5DD
The following compounds are shown together with reported MTD at 5 days values.
Record the value in mg/kg, omitting the unit from your answer.

MTD at 5 days for `C/C=C1\NC(=O)[C@H](Cc2ccccc2)NC(=O)[C@@H](C(C)C)NC(=O)[C@@H]([C@@H](C)CC)NC(=O)[C@H](NC(=O)[C@H](NC(=O)[C@H](CCCN)NC(=O)[C@H]2CCCN2C(=O)[C@H](NC(=O)[C@@H](NC(=O)[C@@H](NC(=O)[C@H](NC(=O)CC[C@@H](C)CC)C(C)C)[C@@H](C)O)C(C)C)C(C)C)[C@@H](C)CC)[C@@H](C)OC(=O)[C@H](C(C)C)NC1=O` ?
0.35

Further cases:
If you can, please state the reported MTD at 5 days value of C/C=C1\NC(=O)[C@H](Cc2ccccc2)NC(=O)[C@@H](C(C)C)NC(=O)[C@@H]([C@@H](C)CC)NC(=O)[C@H](NC(=O)[C@H](NC(=O)[C@H](CCCN)NC(=O)[C@H]2CCCN2C(=O)[C@H](NC(=O)[C@@H](NC(=O)[C@@H](NC(=O)[C@H](NC(=O)CCCC(C)C)C(C)C)[C@@H](C)O)C(C)C)C(C)C)[C@@H](C)CC)[C@@H](C)OC(=O)[C@H](C(C)C)NC1=O [5-methylhexanoic KF, reference compound] .
0.35

Values were extracted from patent US7507708B2.
